Measured values drawn from patent US10668094B2 for this set.

- experimental.target: human Na,K-ATPase α2β3FXYD1 (Homo sapiens (Human), UniProt P50993+P54709)
- assay.details: biochemical
- Assay type: biochemical
- details: read-out: Ki in nM ± SEM α2β3

compound | Ki
CC1CN(C(C)(C)C)CCC(O[C@@H]2[C@H](C)O[C@@H](O[C@@H]3[C@H](C)O[C@@H](O[C@H]4CC[C@@]5(C)C(CCC6C5C[C@H](O)[C@]5(C)[C@@H](C7=CC(=O)OC7)CC[C@]65O)C4)C[C@@H]3O)C[C@@H]2O)O1 (stereo partly shown) | 16.3 nM
CC1CN(CCC2CC2)CCC(O[C@@H]2[C@H](C)O[C@@H](O[C@@H]3[C@H](C)O[C@@H](O[C@H]4CC[C@@]5(C)C(CCC6C5C[C@H](O)[C@]5(C)[C@@H](C7=CC(=O)OC7)CC[C@]65O)C4)C[C@@H]3O)C[C@@H]2O)O1 (stereo partly shown) | 7.2 nM
CCCN1CCC(O[C@@H]2[C@H](C)O[C@@H](O[C@@H]3[C@H](C)O[C@@H](O[C@H]4CC[C@@]5(C)C(CCC6C5C[C@H](O)[C@]5(C)[C@@H](C7=CC(=O)OC7)CC[C@]65O)C4)C[C@@H]3O)C[C@@H]2O)OC(C)C1 (stereo partly shown) | 9.8 nM
CC1CN(CC2CC(C)(C)C2)CCC(O[C@@H]2[C@H](C)O[C@@H](O[C@@H]3[C@H](C)O[C@@H](O[C@H]4CC[C@@]5(C)C(CCC6C5C[C@H](O)[C@]5(C)[C@@H](C7=CC(=O)OC7)CC[C@]65O)C4)C[C@@H]3O)C[C@@H]2O)O1 (stereo partly shown) | 3.9 nM

---

Selectivity Ki ratio α1β1/α2β1 values, listed per item
- Test system: human Na,K-ATPase α2β1FXYD1
- Format: biochemical
measured.endpoint: Selectivity Ki ratio α1β1/α2β1

compound | measured.endpoint | measured.result
CC1CN(Cc2ccccc2)CCC(O[C@@H]2[C@H](C)O[C@@H](O[C@@H]3[C@H](C)O[C@@H](O[C@H]4CC[C@@]5(C)C(CCC6C5C[C@H](O)[C@]5(C)[C@@H](C7=CC(=O)OC7)CC[C@]65O)C4)C[C@@H]3O)C[C@@H]2O)O1 (some centres unmarked) | Selectivity Ki ratio α1β1/α2β1 | 5.7
CC1CN(CCS(C)(=O)=O)CCC(O[C@@H]2C(C)O[C@@H](OC3C(C)OC(O[C@H]4CC[C@@]5(C)C(CCC6C5CC(O)[C@]5(C)[C@@H](C7=CC(=O)OC7)CC[C@]65O)C4)C[C@@H]3O)C[C@@H]2O)O1 (stereo in doubt) | Selectivity Ki ratio α1β1/α2β1 | 9.4

---

- experimental.target: human Na,K-ATPase α2β3FXYD1 (Homo sapiens (Human), UniProt P50993+P54709)
- assay.details: biochemical
- Assay type: biochemical
- details: read-out: Ki in nM ± SEM α2β3
Decide using Ki alone. Strictly below 10 nM: label 1. Equal to or above 10 nM: label 0.

molecule | classification
CCN1CCC(O[C@@H]2[C@H](C)O[C@@H](O[C@@H]3[C@H](C)O[C@@H](O[C@H]4CC[C@@]5(C)C(CCC6C5C[C@H](O)[C@]5(C)[C@@H](C7=CC(=O)OC7)CC[C@]65O)C4)C[C@@H]3O)C[C@@H]2O)OC(C)C1 (stereo partly drawn) | label 0
CC1CN(C)CCC(O[C@@H]2[C@H](C)O[C@@H](O[C@@H]3[C@H](C)O[C@@H](O[C@H]4CC[C@@]5(C)C(CCC6C5C[C@H](O)[C@]5(C)[C@@H](C7=CC(=O)OC7)CC[C@]65O)C4)C[C@@H]3O)C[C@@H]2O)O1 (stereo partly drawn) | label 0
CC1CN(Cc2ccccc2)CCC(O[C@@H]2[C@H](C)O[C@@H](O[C@@H]3[C@H](C)O[C@@H](O[C@H]4CC[C@@]5(C)C(CCC6C5C[C@H](O)[C@]5(C)[C@@H](C7=CC(=O)OC7)CC[C@]65O)C4)C[C@@H]3O)C[C@@H]2O)O1 (stereo partly drawn) | label 1
CC1CN(CCS(C)(=O)=O)CCC(O[C@@H]2C(C)O[C@@H](OC3C(C)OC(O[C@H]4CC[C@@]5(C)C(CCC6C5CC(O)[C@]5(C)[C@@H](C7=CC(=O)OC7)CC[C@]65O)C4)C[C@@H]3O)C[C@@H]2O)O1 (stereo in doubt) | label 0
CC1CN(C[Si](C)(C)C)CCC(OC2C(O)CC(OC3C(O)CC(OC4CCC5(C)C(CCC6C5CC(O)C5(C)C(C7=CC(=O)OC7)CCC65O)C4)OC3C)OC2C)O1 (stereo not drawn) | label 0
CC1CN(CC2CC2)CCC(O[C@@H]2[C@H](C)O[C@@H](O[C@@H]3[C@H](C)O[C@@H](O[C@H]4CC[C@@]5(C)C(CCC6C5C[C@H](O)[C@]5(C)[C@@H](C7=CC(=O)OC7)CC[C@]65O)C4)C[C@@H]3O)C[C@@H]2O)O1 (stereo partly drawn) | label 1
CC1CN(CS(C)(=O)=O)CCC(O[C@@H]2C(C)O[C@@H](OC3C(C)OC(O[C@H]4CC[C@@]5(C)C(CCC6C5CC(O)[C@]5(C)[C@@H](C7=CC(=O)OC7)CC[C@]65O)C4)C[C@@H]3O)C[C@@H]2O)O1 (stereo in doubt) | label 0
CC1CN(C2CCCC2)CCC(O[C@@H]2C(C)O[C@@H](OC3C(C)OC(O[C@H]4CC[C@@]5(C)C(CCC6C5CC(O)[C@]5(C)[C@@H](C7=CC(=O)OC7)CC[C@]65O)C4)C[C@@H]3O)C[C@@H]2O)O1 (stereo in doubt) | label 0
CC1CN(C2CCCCC2)CCC(O[C@@H]2C(C)O[C@@H](OC3C(C)OC(O[C@H]4CC[C@@]5(C)C(CCC6C5CC(O)[C@]5(C)[C@@H](C7=CC(=O)OC7)CC[C@]65O)C4)C[C@@H]3O)C[C@@H]2O)O1 (stereo in doubt) | label 0

---

- Test system: human Na,K-ATPase α2β1FXYD1
- Type: biochemical

compound | Selectivity Ki ratio α1β1/α2β1
CC1CN(C2CC2)CCC(O[C@@H]2[C@H](C)O[C@@H](O[C@@H]3[C@H](C)O[C@@H](O[C@H]4CC[C@@]5(C)C(CCC6C5C[C@H](O)[C@]5(C)[C@@H](C7=CC(=O)OC7)CC[C@]65O)C4)C[C@@H]3O)C[C@@H]2O)O1 (stereo partly drawn) | 7.5
CC1CN(C2CCC2)CCC(O[C@@H]2[C@H](C)O[C@@H](O[C@@H]3[C@H](C)O[C@@H](O[C@H]4CC[C@@]5(C)C(CCC6C5C[C@H](O)[C@]5(C)[C@@H](C7=CC(=O)OC7)CC[C@]65O)C4)C[C@@H]3O)C[C@@H]2O)O1 (stereo partly drawn) | 16.9
CC1CN(C2CCCC2)CCC(O[C@@H]2C(C)O[C@@H](OC3C(C)OC(O[C@H]4CC[C@@]5(C)C(CCC6C5CC(O)[C@]5(C)[C@@H](C7=CC(=O)OC7)CC[C@]65O)C4)C[C@@H]3O)C[C@@H]2O)O1 (stereo in doubt) | 4.1

---

- experimental.target: human Na,K-ATPase α2β2FXYD1 (Homo sapiens (Human))
- Format: biochemical
- details: read-out: Ki in nM ± SEM α2β2
measured.endpoint: Ki (nM)

compound | measured.endpoint | readout.units | measured.result
CC1CN(CC2CC(C)(C)C2)CCC(O[C@@H]2[C@H](C)O[C@@H](O[C@@H]3[C@H](C)O[C@@H](O[C@H]4CC[C@@]5(C)C(CCC6C5C[C@H](O)[C@]5(C)[C@@H](C7=CC(=O)OC7)CC[C@]65O)C4)C[C@@H]3O)C[C@@H]2O)O1 (stereo partly drawn) | Ki | nM | 5.1
CCCN1CCC(O[C@@H]2[C@H](C)O[C@@H](O[C@@H]3[C@H](C)O[C@@H](O[C@H]4CC[C@@]5(C)C(CCC6C5C[C@H](O)[C@]5(C)[C@@H](C7=CC(=O)OC7)CC[C@]65O)C4)C[C@@H]3O)C[C@@H]2O)OC(C)C1 (stereo partly drawn) | Ki | nM | 10.5
CC1CN(CC(F)(F)F)CCC(O[C@@H]2[C@H](C)O[C@@H](O[C@@H]3[C@H](C)O[C@@H](O[C@H]4CC[C@@]5(C)C(CCC6C5C[C@H](O)[C@]5(C)[C@@H](C7=CC(=O)OC7)CC[C@]65O)C4)C[C@@H]3O)C[C@@H]2O)O1 (stereo partly drawn) | Ki | nM | 18.1
CC1CN(CCC2CC2)CCC(O[C@@H]2[C@H](C)O[C@@H](O[C@@H]3[C@H](C)O[C@@H](O[C@H]4CC[C@@]5(C)C(CCC6C5C[C@H](O)[C@]5(C)[C@@H](C7=CC(=O)OC7)CC[C@]65O)C4)C[C@@H]3O)C[C@@H]2O)O1 (stereo partly drawn) | Ki | nM | 12.1
CC1CN(CC2CC2)CCC(O[C@@H]2[C@H](C)O[C@@H](O[C@@H]3[C@H](C)O[C@@H](O[C@H]4CC[C@@]5(C)C(CCC6C5C[C@H](O)[C@]5(C)[C@@H](C7=CC(=O)OC7)CC[C@]65O)C4)C[C@@H]3O)C[C@@H]2O)O1 (stereo partly drawn) | Ki | nM | 8
CC1CN(C(C)C)CCC(O[C@@H]2[C@H](C)O[C@@H](O[C@@H]3[C@H](C)O[C@@H](O[C@H]4CC[C@@]5(C)C(CCC6C5C[C@H](O)[C@]5(C)[C@@H](C7=CC(=O)OC7)CC[C@]65O)C4)C[C@@H]3O)C[C@@H]2O)O1 (stereo partly drawn) | Ki | nM | 16.7
